// reported APTT for each item listed
Tested on: pooled normal human plasma
Experiment: Anticoagulant activity, APTT
Conditions: 0.1 mg/mL in normal pooled human plasma
Procedure: APTT measurements were performed on a STAGO STA-Compact Coagulation Analyser using standard protocols according to the manufacturer's instructions. Unfractionated heparin (UFH) was used as a control.
A number alone suffices; assume s.

Q. State the measured APTT (pooled normal human plasma) of CC(C)CCCC(C)C1CCC2C3CCC4CC(OC5OC(COS(=O)(=O)O)C(OC6OC(COS(=O)(=O)O)C(OC7OC(COS(=O)(=O)O)C(OS(=O)(=O)O)C(OS(=O)(=O)O)C7OS(=O)(=O)O)C(OS(=O)(=O)O)C6OS(=O)(=O)O)C(OS(=O)(=O)O)C5OS(=O)(=O)O)CCC4(C)C3CCC12C (centres unmarked)
A. 51.6

Q. Please look at CC(C)CCCC(C)C1CCC2C3CCC4CC(OCc5cn(CCCOC6OC(COS(=O)(=O)O)C(OS(=O)(=O)O)C(OS(=O)(=O)O)C6OC6OC(COS(=O)(=O)O)C(OS(=O)(=O)O)C(OC7OC(COS(=O)(=O)O)C(OS(=O)(=O)O)C(OS(=O)(=O)O)C7OS(=O)(=O)O)C6OS(=O)(=O)O)nn5)CCC4(C)C3CCC12C (centres unmarked) and tell me its recorded APTT on pooled normal human plasma.
A. 73.3

====

Biological target: VEGF (Homo sapiens, UniProt P15692)
Sequence (P15692 207-395): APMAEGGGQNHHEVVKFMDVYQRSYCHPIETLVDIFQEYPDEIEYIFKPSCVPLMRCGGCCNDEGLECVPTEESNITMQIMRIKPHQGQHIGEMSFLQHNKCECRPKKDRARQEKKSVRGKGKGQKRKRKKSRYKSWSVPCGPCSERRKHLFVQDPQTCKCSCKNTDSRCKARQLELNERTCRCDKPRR
assay-metric: Kd (nM)
API: value field is a number in nM; no unit string.

See these solved cases before continuing.
molecule="CC(C)CCCC(C)C1CCC2C3CCC4CC(OC5OC(COS(=O)(=O)O)C(OC6OC(COS(=O)(=O)O)C(OS(=O)(=O)O)C(OS(=O)(=O)O)C6OS(=O)(=O)O)C(OS(=O)(=O)O)C5OS(=O)(=O)O)CCC4(C)C3CCC12C (stereo not shown)" reported_measurement=1200
molecule="CC(C)CCCC(C)C1CCC2C3CCC4CC(OC5OC(COS(=O)(=O)O)C(OS(=O)(=O)O)C(OS(=O)(=O)O)C5OC5OC(COS(=O)(=O)O)C(OS(=O)(=O)O)C(OC6OC(COS(=O)(=O)O)C(OS(=O)(=O)O)C(OS(=O)(=O)O)C6OS(=O)(=O)O)C5OS(=O)(=O)O)CCC4(C)C3CCC12C (stereo not shown)" reported_measurement=319
molecule="CC(C)CCC[C@@H](C)[C@H]1CC[C@H]2[C@@H]3CCC4CC(O[C@@H]5O[C@H](COS(=O)(=O)O)[C@@H](O[C@@H]6O[C@H](COS(=O)(=O)O)[C@@H](OS(=O)(=O)O)[C@H](OS(=O)(=O)O)[C@H]6OS(=O)(=O)O)[C@H](OS(=O)(=O)O)[C@H]5OS(=O)(=O)O)CC[C@]4(C)[C@H]3CC[C@]12C (stereo partly shown)" reported_measurement=1350

Q. Give Kd for CC(C)CCCC(C)C1CCC2C3CCC4CC(OC5OC(COC6OC(COS(=O)(=O)O)C(OC7OC(COS(=O)(=O)O)C(OC8OC(COS(=O)(=O)O)C(OS(=O)(=O)O)C(OS(=O)(=O)O)C8OS(=O)(=O)O)C(OS(=O)(=O)O)C7OS(=O)(=O)O)C(OS(=O)(=O)O)C6OS(=O)(=O)O)C(OS(=O)(=O)O)C(OS(=O)(=O)O)C5OS(=O)(=O)O)CCC4(C)C3CCC12C (stereo not shown)
A. 7.9

Q. Please give the documented Kd of CC(C)CCCC(C)C1CCC2C3CCC4CC(OCc5cn(CCCOC6OC(COS(=O)(=O)O)C(OS(=O)(=O)O)C(OS(=O)(=O)O)C6OC6OC(COS(=O)(=O)O)C(OS(=O)(=O)O)C(OC7OC(COS(=O)(=O)O)C(OS(=O)(=O)O)C(OS(=O)(=O)O)C7OS(=O)(=O)O)C6OS(=O)(=O)O)nn5)CCC4(C)C3CCC12C (stereo not shown)
A. 460

Q. Quick one: give measured Kd for CC(C)CCCC(C)C1CCC2C3CCC4CC(OC5OC(COS(=O)(=O)O)C(OS(=O)(=O)O)C(OS(=O)(=O)O)C5OC5OC(COS(=O)(=O)O)C(OS(=O)(=O)O)C(OC6OC(COS(=O)(=O)O)C(OS(=O)(=O)O)C(OC7OC(COS(=O)(=O)O)C(OS(=O)(=O)O)C(OC8OC(COS(=O)(=O)O)C(OS(=O)(=O)O)C(OS(=O)(=O)O)C8OS(=O)(=O)O)C7OS(=O)(=O)O)C6OS(=O)(=O)O)C5OS(=O)(=O)O)CCC4(C)C3CCC12C (stereo not shown)
A. 1.04
